- Tested on: H1299 (lung cancer)
- experiment description: MTT cytotoxicity assay, H1299
- Type: cell-based, human
- experimental setup: 72 h
quantity: IC50 (µM)
Numbers only, in µM.

Examples from the recorded data:
molecule	value unit	IC50
Cc1ccnc(-c2cc(C)ccn2)c1.Cc1ccnc(-c2cc(C)ccn2)c1.Cc1ccnc(-c2cc(C)ccn2)c1.F[P-](F)(F)(F)(F)F.F[P-](F)(F)(F)(F)F.F[P-](F)(F)(F)(F)F.[Co+3] [complex (IV), [Co^III(4,4′-Me2-Bpy)3.](PF6)3]	µM	2.84
COc1ccnc(-c2cc(OC)ccn2)c1.COc1ccnc(-c2cc(OC)ccn2)c1.COc1ccnc(-c2cc(OC)ccn2)c1.F[P-](F)(F)(F)(F)F.F[P-](F)(F)(F)(F)F.F[P-](F)(F)(F)(F)F.[Co+3] [complex (VII), [Co^III(4,4′-(OMe)2-Bpy)3](PF6)3]	µM	8.71
CCCCCCCCCc1ccnc(-c2cc(CCCCCCCCC)ccn2)c1.CCCCCCCCCc1ccnc(-c2cc(CCCCCCCCC)ccn2)c1.CCCCCCCCCc1ccnc(-c2cc(CCCCCCCCC)ccn2)c1.F[P-](F)(F)(F)(F)F.F[P-](F)(F)(F)(F)F.F[P-](F)(F)(F)(F)F.[Co+3] [complex (VIII), [Co^III(4,4′-(C9H19)2-Bpy)3](PF6)3]	µM	26.7
F[P-](F)(F)(F)(F)F.F[P-](F)(F)(F)(F)F.F[P-](F)(F)(F)(F)F.[Co+3].c1ccc(-c2ccccn2)nc1.c1ccc(-c2ccccn2)nc1.c1ccc(-c2ccccn2)nc1 [complex (VI), [Co^III(N^N)3](PF6)3]	µM	14.9

Query: So what does the record say about IC50 for F[P-](F)(F)(F)(F)F.F[P-](F)(F)(F)(F)F.[Co+2].c1ccc(-c2ccccn2)nc1.c1ccc(-c2ccccn2)nc1.c1ccc(-c2ccccn2)nc1 [complex (V), [Co^II(N^N)3](PF6)2] ?
Result: 9.4

* * *

- System: Taxol-resistant MCF-7 cancer cells
- experiment description: MTT cytotoxicity, taxol-resistant MCF-7
- Format: cell-based
- experimental setup: MCF-7; IC50 taxol-resistant over IC50 taxol-sensitive
Resistant Factor strictly less than 0.7 = Condition met. Otherwise Condition not met.

Query: Find out if reported Resistant Factor for COc1ccnc(-c2cc(OC)ccn2)c1.COc1ccnc(-c2cc(OC)ccn2)c1.COc1ccnc(-c2cc(OC)ccn2)c1.F[P-](F)(F)(F)(F)F.F[P-](F)(F)(F)(F)F.F[P-](F)(F)(F)(F)F.[Co+3] [complex (VII), [Co^III(4,4′-(OMe)2-Bpy)3](PF6)3] is less than 0.7
Result: Condition met

* * *

- System: OV2008 cervical cancer cells
- experiment description: MTT cytotoxicity, OV2008 (cisplatin-sensitive)
- Format: cell-based
- experimental setup: 72 h
Would you mind telling me the reported pIC50 of each entry?
Give bare numbers, as −log10 of the molar value.

compound	pIC50
F[P-](F)(F)(F)(F)F.F[P-](F)(F)(F)(F)F.[Co+2].c1ccc(-c2ccccn2)nc1.c1ccc(-c2ccccn2)nc1.c1ccc(-c2ccccn2)nc1 [complex (V), [Co^II(N^N)3](PF6)2]	4.72
F[P-](F)(F)(F)(F)F.F[P-](F)(F)(F)(F)F.F[P-](F)(F)(F)(F)F.[Co+3].c1ccc(-c2ccccn2)nc1.c1ccc(-c2ccccn2)nc1.c1ccc(-c2ccccn2)nc1 [complex (VI), [Co^III(N^N)3](PF6)3]	4.37
CCCCCCCCCc1ccnc(-c2cc(CCCCCCCCC)ccn2)c1.CCCCCCCCCc1ccnc(-c2cc(CCCCCCCCC)ccn2)c1.CCCCCCCCCc1ccnc(-c2cc(CCCCCCCCC)ccn2)c1.F[P-](F)(F)(F)(F)F.F[P-](F)(F)(F)(F)F.F[P-](F)(F)(F)(F)F.[Co+3] [complex (VIII), [Co^III(4,4′-(C9H19)2-Bpy)3](PF6)3]	4.31

# batch: return pIC50 for each of the 2 compounds below
1. COc1ccnc(-c2cc(OC)ccn2)c1.COc1ccnc(-c2cc(OC)ccn2)c1.COc1ccnc(-c2cc(OC)ccn2)c1.F[P-](F)(F)(F)(F)F.F[P-](F)(F)(F)(F)F.F[P-](F)(F)(F)(F)F.[Co+3] [complex (VII), [Co^III(4,4′-(OMe)2-Bpy)3](PF6)3]
2. Cc1ccnc(-c2cc(C)ccn2)c1.Cc1ccnc(-c2cc(C)ccn2)c1.Cc1ccnc(-c2cc(C)ccn2)c1.F[P-](F)(F)(F)(F)F.F[P-](F)(F)(F)(F)F.F[P-](F)(F)(F)(F)F.[Co+3] [complex (IV), [Co^III(4,4′-Me2-Bpy)3.](PF6)3]

Result:
1: 4.85; 2: 5.12

* * *

- Tested on: HepG2 (liver cancer)
- experiment description: MTT cytotoxicity assay, HepG2
- Format: cell-based
- experimental setup: 72 h
pIC50: −log10 of the molar value.
Rule: 1.0 for pIC50 not less than 5, 0.0 for anything less.

Study these solved cases before continuing.
molecule	tested on	class name
COc1ccnc(-c2cc(OC)ccn2)c1.COc1ccnc(-c2cc(OC)ccn2)c1.COc1ccnc(-c2cc(OC)ccn2)c1.F[P-](F)(F)(F)(F)F.F[P-](F)(F)(F)(F)F.F[P-](F)(F)(F)(F)F.[Co+3] [complex (VII), [Co^III(4,4′-(OMe)2-Bpy)3](PF6)3]	HepG2 (liver cancer)	0.0
Cc1ccnc(-c2cc(C)ccn2)c1.Cc1ccnc(-c2cc(C)ccn2)c1.Cc1ccnc(-c2cc(C)ccn2)c1.F[P-](F)(F)(F)(F)F.F[P-](F)(F)(F)(F)F.F[P-](F)(F)(F)(F)F.[Co+3] [complex (IV), [Co^III(4,4′-Me2-Bpy)3.](PF6)3]	HepG2 (liver cancer)	1.0
CCCCCCCCCc1ccnc(-c2cc(CCCCCCCCC)ccn2)c1.CCCCCCCCCc1ccnc(-c2cc(CCCCCCCCC)ccn2)c1.CCCCCCCCCc1ccnc(-c2cc(CCCCCCCCC)ccn2)c1.F[P-](F)(F)(F)(F)F.F[P-](F)(F)(F)(F)F.F[P-](F)(F)(F)(F)F.[Co+3] [complex (VIII), [Co^III(4,4′-(C9H19)2-Bpy)3](PF6)3]	HepG2 (liver cancer)	0.0

API: the following record is the query input.
Query: I'd appreciate it if you could say whether F[P-](F)(F)(F)(F)F.F[P-](F)(F)(F)(F)F.F[P-](F)(F)(F)(F)F.[Co+3].c1ccc(-c2ccccn2)nc1.c1ccc(-c2ccccn2)nc1.c1ccc(-c2ccccn2)nc1 [complex (VI), [Co^III(N^N)3](PF6)3] has pIC50 at least equal to 5.
Result: 0.0

* * *

Answer each item with its documented Resistant Factor.
- Tested on: Taxol-resistant MCF-7 cancer cells
- experiment description: MTT cytotoxicity, taxol-resistant MCF-7
- Format: cell-based
- experimental setup: MCF-7; IC50 taxol-resistant over IC50 taxol-sensitive
- Procedure: All prepared cobalt-polypyridyl complexes were dissolved in DMSO at a final concentration of 50 mmol/L and stored at −20° C. before use. Cytotoxicity was assessed by using the 3-(4,5-dimethylthiazol-2-yl)-2,5-diphenyltetrazolium bromide (MTT) (5.0 mg/ml) assay as previously described (Wong, V. K. et al., Cell Death Dis, 2013, 4, e720). Briefly, 4×10^3 cells per well were seeded in 96-well plates before drug treatments. […] A570 nm was then determined in each well on the next day. […]
Give bare numbers.

List reported Resistant Factor for each of these compounds:
1. Cc1ccnc(-c2cc(C)ccn2)c1.Cc1ccnc(-c2cc(C)ccn2)c1.Cc1ccnc(-c2cc(C)ccn2)c1.F[P-](F)(F)(F)(F)F.F[P-](F)(F)(F)(F)F.F[P-](F)(F)(F)(F)F.[Co+3] [complex (IV), [Co^III(4,4′-Me2-Bpy)3.](PF6)3]
2. F[P-](F)(F)(F)(F)F.F[P-](F)(F)(F)(F)F.F[P-](F)(F)(F)(F)F.[Co+3].c1ccc(-c2ccccn2)nc1.c1ccc(-c2ccccn2)nc1.c1ccc(-c2ccccn2)nc1 [complex (VI), [Co^III(N^N)3](PF6)3]
3. CCCCCCCCCc1ccnc(-c2cc(CCCCCCCCC)ccn2)c1.CCCCCCCCCc1ccnc(-c2cc(CCCCCCCCC)ccn2)c1.CCCCCCCCCc1ccnc(-c2cc(CCCCCCCCC)ccn2)c1.F[P-](F)(F)(F)(F)F.F[P-](F)(F)(F)(F)F.F[P-](F)(F)(F)(F)F.[Co+3] [complex (VIII), [Co^III(4,4′-(C9H19)2-Bpy)3](PF6)3]
4. F[P-](F)(F)(F)(F)F.F[P-](F)(F)(F)(F)F.[Co+2].c1ccc(-c2ccccn2)nc1.c1ccc(-c2ccccn2)nc1.c1ccc(-c2ccccn2)nc1 [complex (V), [Co^II(N^N)3](PF6)2]

Result:
1. 0.68
2. 0.62
3. 0.39
4. 1.25
